# assaySystem: proteasomes isolated from rabbit reticulocytes
# Construct: Ki
# details: Lineweaver-Burk plot analysis, noncompetitive model
property: pKi
In textbook form, pKi equals minus log to base ten of the concentration in mol/L.

Input: What does the data say about its pKi? Entry: Nc1ccc(O)c2ncccc12 [5AHQ, 5-amino-8-hydroxyquinoline]
Output: 5.68
